- Study Target: human Y5 receptor (Homo sapiens, UniProt Q15761)
- Sequence (Q15761 whole entry): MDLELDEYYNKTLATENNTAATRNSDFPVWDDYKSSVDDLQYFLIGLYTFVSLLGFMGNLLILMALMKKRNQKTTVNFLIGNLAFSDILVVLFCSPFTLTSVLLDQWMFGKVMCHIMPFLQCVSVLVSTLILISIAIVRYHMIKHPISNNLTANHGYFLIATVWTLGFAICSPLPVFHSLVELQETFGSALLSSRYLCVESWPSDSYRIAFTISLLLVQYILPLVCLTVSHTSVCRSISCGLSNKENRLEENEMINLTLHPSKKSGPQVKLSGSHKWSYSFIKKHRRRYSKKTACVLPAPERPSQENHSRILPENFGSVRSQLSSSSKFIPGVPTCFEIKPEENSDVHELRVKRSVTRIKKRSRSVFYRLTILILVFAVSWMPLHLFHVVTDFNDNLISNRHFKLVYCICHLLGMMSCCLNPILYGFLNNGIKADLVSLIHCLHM
- Method Summary: Radioimmunoassay of cAMP, cells stably expressing human Y5 receptor
- Format: cell-based
- Design: Ki Values, Human Y5; apparent Kd; pKd; The isolated clone (CG-19) turned out to contain a full length cDNA; The longest open reading frame encodes a 455 amino acid protein
- Test Parameters: block of NPY-induced inhibition of cAMP accumulation, forskolin-stimulated LM(tk-) cells, human Y5
Experimental Endpoint: Kb (µM)
# value in µM; strip the unit string

// solved cases for Kb follow
>>> reading("Cl.Cl.Nc1ccccc1S(=O)(=O)NC[C@H]1CC[C@H](CNCC2CCc3ccccc3C2)CC1 (mixture of isomers)")
0.003
>>> reading("Cl.O=S(=O)(NC[C@H]1CC[C@H](CNCC2CCc3ccccc3C2)CC1)c1cccc2ccccc12 (mixture of isomers)")
0.023
>>> reading("Cl.O=S(=O)(NC[C@H]1CC[C@H](CNCc2cccc3ccccc23)CC1)c1ccccc1C(F)(F)F")
0.038

Shift focus to the following entry.
Query (molecule): Cl.O=[N+]([O-])c1ccccc1S(=O)(=O)NC[C@H]1CC[C@H](CNCC2CCc3ccccc3C2)CC1 (mixture of isomers) ; field requested: Kb
0.026
